Quick record: HepSE_hepatitis, Hepatotoxicity.
property.measured: HepSE_hepatitis

INSERT INTO measurements (molecule, target_under_test, number) VALUES
  ('CN(C/C=C/C#CC(C)(C)C)Cc1cccc2ccccc12 [TERBINAFINE]', 'Hepatotoxicity', 0),
  ('COC(=O)CCc1ccc(OCC(O)CNC(C)C)cc1 (centres undefined) [ESMOLOL]', 'Hepatotoxicity', 0),
  ('Cc1noc(NS(=O)(=O)c2ccc(N)cc2)c1C [SULFISOXAZOLE]', 'Hepatotoxicity', 1),
  ('Nc1ccc(O)c(C(=O)O)c1 [MESALAMINE]', 'Hepatotoxicity', 1),
  ('CC(C)(O)c1ccccc1CC[C@@H](SCC1(CC(=O)O)CC1)c1cccc(/C=C/c2ccc3ccc(Cl)cc3n2)c1 [MONTELUKAST]', 'Hepatotoxicity', 1),
  ('Nc1ccn([C@@H]2CS[C@H](CO)O2)c(=O)n1 [LAMIVUDINE]', 'Hepatotoxicity', 0),
  ('CCC(=O)C(CC(C)N(C)C)(c1ccccc1)c1ccccc1 (centres undefined) [METHADONE]', 'Hepatotoxicity', 0),
  ('CSCC[C@H](NC(=O)[C@H](Cc1ccc(OS(=O)(=O)O)cc1)NC(=O)[C@@H](N)CC(=O)O)C(=O)NCC(=O)N[C@@H](Cc1c[nH]c2ccccc12)C(=O)N[C@@H](CCSC)C(=O)N[C@@H](CC(=O)O)C(=O)N[C@@H](Cc1ccccc1)C(N)=O [SINCALIDE]', 'Hepatotoxicity', 0),
  ('CCOC(=O)CC(SP(=S)(OC)OC)C(=O)OCC (centres undefined) [MALATHION]', 'Hepatotoxicity', 0);

----------
# System: Hepatotoxicity
Threshold check on HepSE_Combined Scores: strictly below 1 is Fulfilled; on or above 1 is Not fulfilled.

INSERT INTO assay_data (compound, cat) VALUES
  ('CC(=O)N(O)CCCCCNC(=O)CCC(=O)N(O)CCCCCNC(=O)CCC(=O)N(O)CCCCCN', 'Fulfilled'),
  ('CC(C)Nc1cccnc1N1CCN(C(=O)c2cc3cc(NS(C)(=O)=O)ccc3[nH]2)CC1', 'Not fulfilled'),
  ('CC1(C)S[C@@H]2[C@H](NC(=O)C(C(=O)O)c3ccccc3)C(=O)N2[C@H]1C(=O)O (stereo partly specified)', 'Fulfilled'),
  ('CC(=O)N[C@@H](CS)C(=O)O', 'Fulfilled'),
  ('Oc1ccc2c3c1O[C@H]1[C@@H](O)CC[C@@]4(O)[C@@H](C2)N(CC2CCC2)CC[C@]314', 'Fulfilled'),
  ('CCC(C)n1ncn(-c2ccc(N3CCN(c4ccc(OCC5COC(Cn6cncn6)(c6ccc(Cl)cc6Cl)O5)cc4)CC3)cc2)c1=O (stereo unspecified)', 'Not fulfilled'),
  ('CC(=O)O[C@H]1C[C@@H]2CC[C@@H]3[C@H](CC[C@@]4(C)[C@H]3C[C@H]([N+]3(C)CCCCC3)[C@@H]4OC(C)=O)[C@@]2(C)C[C@@H]1N1CCCCC1', 'Fulfilled'),
  ('C[C@]12CC[C@@H]3c4ccc(OC(=O)N(CCCl)CCCl)cc4CC[C@H]3[C@@H]1CC[C@@H]2O', 'Fulfilled'),
  ('COc1cc(NCc2ccc3nc(N)nc(N)c3c2C)cc(OC)c1OC [TRIMETREXATE]', 'Fulfilled'),
  ('CC(C)C[C@H]1C(=O)N2CCC[C@H]2[C@]2(O)O[C@](NC(=O)[C@@H]3C=C4c5cccc6[nH]c(Br)c(c56)C[C@H]4N(C)C3)(C(C)C)C(=O)N12', 'Fulfilled'),
  ('CC(=O)CC(c1ccccc1)c1c(O)c2ccccc2oc1=O (stereo unspecified)', 'Not fulfilled'),
  ('OC(CCN1CCCC1)(c1ccccc1)C1CCCCC1 (stereo unspecified)', 'Fulfilled'),
  ('C[C@]12CC[C@H]3[C@@H](CCC4=CC(=O)CC[C@@]43C)[C@@H]1CC[C@@H]2O', 'Not fulfilled'),
  ('Cc1cccc(C)c1NC(=O)C1CCCCN1C (stereo unspecified) [MEPIVACAINE]', 'Fulfilled');

----------
As an illustration, consider measured HepSE_Combined Scores for molecules on Hepatotoxicity.
property.measured: HepSE_Combined Scores

INSERT INTO results (molecule, result) VALUES
  ('CCC1=C(C)CN(C(=O)NCCc2ccc(S(=O)(=O)NC(=O)N[C@H]3CC[C@H](C)CC3)cc2)C1=O [GLIMEPIRIDE]', 3),
  ('C[C@@H]1CN([C@H]2CC[C@](C#N)(c3ccc(F)cc3)CC2)CC[C@]1(C(=O)O)c1ccccc1', 0),
  ('CCOc1ccccc1OCCN[C@H](C)Cc1ccc(OC)c(S(N)(=O)=O)c1', 0),
  ('Cc1ccc(S(=O)(=O)NC(=O)NN2CCCCCC2)cc1 [TOLAZAMIDE]', 1);

----------
# System: Hepatotoxicity
# run.conditions: Liver
The following compounds are shown together with reported HepSE_Combined Scores values.
property.measured: HepSE_Combined Scores

INSERT INTO assay_data (compound, number) VALUES
  ('Cc1cccc([C@H](C)c2cnc[nH]2)c1C [DEXMEDETOMIDINE]', 1),
  ('CCCc1cc(=O)[nH]c(=S)[nH]1 [PROPYLTHIOURACIL]', 2),
  ('O=C(O)c1cc(-c2ccc(F)cc2F)ccc1O [DIFLUNISAL]', 2),
  ('NC1=NCC2c3ccccc3Cc3ccccc3N12 (stereo not drawn) [EPINASTINE]', 0),
  ('NCCc1ccc(O)c(O)c1 [DOPAMINE]', 0),
  ('CN/C(=N/CCSCc1nc[nH]c1C)NC#N [CIMETIDINE]', 0),
  ('O=C1NC(=O)C(c2ccccc2)(c2ccccc2)N1 [PHENYTOIN]', 1),
  ('C#C[C@]1(O)CC[C@H]2[C@@H]3CCC4=CC(=O)CC[C@@H]4[C@H]3CC[C@@]21CC [LEVONORGESTREL]', 0),
  ('O=C(O)O [BICARBONATE]', 0),
  ('NNc1nncc2ccccc12 [HYDRALAZINE]', 1),
  ('CC(=O)O[C@H]1C(=O)[C@@]2(C)[C@H]([C@H](OC(=O)c3ccccc3)[C@]3(O)C[C@H](OC(=O)[C@H](O)[C@@H](NC(=O)c4ccccc4)c4ccccc4)C(C)=C1C3(C)C)[C@]1(OC(C)=O)CO[C@@H]1C[C@@H]2O [PACLITAXEL]', 2),
  ('NC(CO)(CO)CO [TROMETHAMINE]', 0),
  ('[H]/N=C(/N)N[C@H]1[C@H](O)[C@@H](O)[C@H](O[C@@H]2O[C@@H](C)[C@](O)(C=O)[C@H]2O[C@@H]2O[C@@H](CO)[C@H](O)[C@@H](O)[C@@H]2NC)[C@@H](N/C(N)=N\[H])[C@@H]1O [STREPTOMYCIN]', 0),
  ('CNCCCC12CCC(c3ccccc31)c1ccccc12 [MAPROTILINE]', 1),
  ('CC(C)NCC(O)COc1ccc(CCOCC2CC2)cc1 (stereo not drawn) [BETAXOLOL]', 0),
  ('N[C@@H]1C[C@H]1c1ccccc1.N[C@H]1C[C@@H]1c1ccccc1 [TRANYLCYPROMINE]', 1),
  ('CC(C[N+](C)(C)C)OC(N)=O (stereo not drawn) [BETHANECHOL]', 0),
  ('CC(=O)O [ACETIC ACID]', 0);

----------
List of HepSE_hepatitis tested on Hepatotoxicity.
property.measured: HepSE_hepatitis

INSERT INTO results (compound, property_measured, number) VALUES
  ('Cc1ccccc1C(OCCN(C)C)c1ccccc1 (centres undefined)', 'HepSE_hepatitis', 0),
  ('COC(=O)Nc1nc2ccc(C(=O)c3ccccc3)cc2[nH]1', 'HepSE_hepatitis', 1),
  ('Cc1cn([C@H]2C=C[C@@H](CO)O2)c(=O)[nH]c1=O', 'HepSE_hepatitis', 1),
  ('CCC(=O)O[C@]1(C(=O)CCl)[C@@H](C)C[C@H]2[C@@H]3C[C@H](F)C4=CC(=O)C=C[C@]4(C)[C@@]3(F)[C@@H](O)C[C@@]21C [HALOBETASOL PROPIONATE]', 'HepSE_hepatitis', 0);

----------
# Test system: Hepatotoxicity
// values below are reported HepSE_liver function tests abnormal
property.measured: HepSE_liver function tests abnormal

INSERT INTO measurements (compound, number) VALUES
  ('CC(C)(C)NC(=O)[C@@H]1CN(Cc2cccnc2)CCN1C[C@@H](O)C[C@@H](Cc1ccccc1)C(=O)N[C@H]1c2ccccc2C[C@H]1O.O', 0),
  ('CCCCCNC(=N)N/N=C/c1c[nH]c2ccc(OC)cc12', 0),
  ('CNC1(C)C2CCC(C2)C1(C)C (centres undefined)', 0),
  ('NC(=O)CC[C@H](N)C(=O)O', 0),
  ('O=P1(NCCCl)OCCCN1CCCl (centres undefined) [IFOSFAMIDE]', 0),
  ('C[C@H]1O[C@@H](O[C@H]2[C@@H](O)C[C@H](O[C@H]3[C@@H](O)C[C@H](O[C@H]4CC[C@@]5(C)[C@H](CC[C@@H]6[C@@H]5C[C@@H](O)[C@]5(C)[C@@H](C7=CC(=O)OC7)CC[C@]65O)C4)O[C@@H]3C)O[C@@H]2C)C[C@H](O)[C@@H]1O', 0),
  ('NS(=O)(=O)c1cc2c(cc1Cl)N=CNS2(=O)=O [CHLOROTHIAZIDE]', 0),
  ('[Ca+2].[H-].[H-]', 0),
  ('Oc1ncnc2[nH]ncc12', 0);
